The reported numbers originate from PubChem BioAssay (NCI).

Each entry below carries its recorded TGI.
tested on: OVCAR-3 ovarian; assay: NCI tumour cell line growth inhibition, 48 h
outcome measure: TGI

INSERT INTO assay_data (compound, result) VALUES
  ('CCC[CH2][Sn]([CH2]CCC)([O]C(=O)c1nccnc1N)[O]C(=O)c1nccnc1N', '2.45 µM'),
  ('CCOC(=O)C1=C(C)NC2SC(=O)/C(=C\c3ccccc3)N2C1c1ccccc1 (stereo unspecified)', '> 100 µM'),
  ('CCc1c(Cl)nc(Cl)nc1Cl', '0.374 µM'),
  ('COC(=O)Nc1nc2cc3c(cc2s1)OCCO3', '> 50 µM'),
  ('O=S1(=O)CS(=O)(=O)OCCCO1', '> 100 µM'),
  ('COc1ccc(/C=N/NC(=O)NCCCN(C)C)cc1', '> 100 µM');
